Below, each of the compounds is paired with its reported pKi value.
- Measured On: UniProtKB Q14765
- Sequence (Q14765 1-748): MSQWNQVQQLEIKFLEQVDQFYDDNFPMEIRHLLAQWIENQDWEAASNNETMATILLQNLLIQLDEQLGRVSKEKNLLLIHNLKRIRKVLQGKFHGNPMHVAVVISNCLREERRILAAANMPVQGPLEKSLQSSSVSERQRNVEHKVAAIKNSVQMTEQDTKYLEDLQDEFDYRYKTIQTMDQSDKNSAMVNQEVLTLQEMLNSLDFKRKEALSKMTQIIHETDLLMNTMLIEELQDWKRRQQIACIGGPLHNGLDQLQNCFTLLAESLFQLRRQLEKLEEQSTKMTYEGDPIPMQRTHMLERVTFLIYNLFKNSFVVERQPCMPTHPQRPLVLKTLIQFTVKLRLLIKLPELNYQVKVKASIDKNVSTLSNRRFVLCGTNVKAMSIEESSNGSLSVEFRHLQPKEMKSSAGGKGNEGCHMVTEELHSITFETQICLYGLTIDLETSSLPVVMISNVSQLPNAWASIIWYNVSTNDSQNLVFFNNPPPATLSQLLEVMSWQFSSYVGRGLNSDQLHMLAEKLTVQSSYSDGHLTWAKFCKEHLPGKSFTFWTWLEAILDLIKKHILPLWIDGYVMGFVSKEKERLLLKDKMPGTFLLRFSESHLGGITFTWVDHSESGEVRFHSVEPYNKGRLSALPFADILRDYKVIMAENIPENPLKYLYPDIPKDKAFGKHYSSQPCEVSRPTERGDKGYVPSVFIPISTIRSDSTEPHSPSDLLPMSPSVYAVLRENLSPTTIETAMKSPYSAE
Square brackets hold non-standard residues; d marks the D form. Peptide text beside a SMILES is read from it. pY = N[C@@H](Cc1ccc(OP(=O)(O)O)cc1)C(=O)O
Quick note: pKi values are minus log10 of concentrations in mol/L.

Worked set:
| Compound | pKi |
| --- | --- |
| O=P(O)(O)Oc1ccc(-c2ccccc2)c(F)c1 [Compound 6i] | 5.42 |
| O=C(O)c1ccccc1-c1ccc(OP(=O)(O)O)cc1 [Compound 6b] | 5.11 |
| O=P(O)(O)Oc1ccc(-c2ccccc2)cc1F [Compound 6h] | 6.25 |

Q. pKi for CC[C@H](C)[C@H](NC(=O)[C@H](CC(N)=O)NC(=O)[C@H](CCC(N)=O)NC(=O)[C@@H]1CCCN1C(=O)[C@H](CC(C)C)NC(=O)[C@H](Cc1ccc(OP(=O)(O)O)cc1)NC(=O)CNC(C)=O)C(=O)N[C@@H](CC(=O)O)C(=O)O [Ac‐GpYLPQNID, reference compound] (Ac-G[pY]LPQNID-OH) ?
A. 6.66

Q. Try the compound O=P(O)(O)Oc1ccc(-c2ccccc2)cc1Cl [Compound 6k]
A. 5.48

Q. Try the compound Cn1cc(-c2ccc(C(F)(F)P(=O)(O)O)c(F)c2)cn1 [Compound 8c]
A. 5.10

Q. Try the compound COc1cc(-c2ccccc2)ccc1OP(=O)(O)O [Compound 6l]
A. 4.66

Q. Try the compound O=P(O)(O)Oc1ccc(-c2ccccc2)cc1 [Compound 1, para‐biphenyl phosphate]
A. 5.96

Q. Try the compound COC(=O)c1ccccc1-c1ccc(OP(=O)(O)O)cc1 [Compound 6a]
A. 5.04

Q. Try the compound O=P(O)(O)Oc1ccc(-c2ccc3ccccc3c2)cc1 [Compound 6g]
A. 6.36
